- tested target: Human-A2A (HEK-A2A) (Homo sapiens, UniProt P29274)
- Construct: expressed in transfected cells; host or cells: HEK-293 cells, stably transfected (HEK-A2A)
- Sequence (P29274 whole entry): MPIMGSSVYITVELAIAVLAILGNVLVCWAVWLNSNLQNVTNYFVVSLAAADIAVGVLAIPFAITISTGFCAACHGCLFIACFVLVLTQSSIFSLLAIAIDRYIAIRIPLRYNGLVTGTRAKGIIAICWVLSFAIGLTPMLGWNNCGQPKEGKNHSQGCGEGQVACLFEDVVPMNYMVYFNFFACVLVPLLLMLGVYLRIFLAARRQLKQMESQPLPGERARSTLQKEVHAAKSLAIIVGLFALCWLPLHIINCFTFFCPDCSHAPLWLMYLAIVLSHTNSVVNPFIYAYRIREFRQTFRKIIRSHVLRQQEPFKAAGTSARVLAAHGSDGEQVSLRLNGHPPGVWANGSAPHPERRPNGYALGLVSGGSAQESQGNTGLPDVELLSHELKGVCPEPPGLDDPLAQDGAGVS
- method: Radioligand binding, human A2A AdoR, HEK-A2A membranes
parameter measured: Ki

I would be grateful if you could share the reported Ki for `Cn1c(-c2ccc(O)cc2)nc2c(NC3CCCC3)ncnc21` .
> 5 µM

---

- tested target: Hamster-A1 (DDT1 MF-2) (Mesocricetus auratus, UniProt A0A1U8BVR4)
- Sequence (A0A1U8BVR4 1-326): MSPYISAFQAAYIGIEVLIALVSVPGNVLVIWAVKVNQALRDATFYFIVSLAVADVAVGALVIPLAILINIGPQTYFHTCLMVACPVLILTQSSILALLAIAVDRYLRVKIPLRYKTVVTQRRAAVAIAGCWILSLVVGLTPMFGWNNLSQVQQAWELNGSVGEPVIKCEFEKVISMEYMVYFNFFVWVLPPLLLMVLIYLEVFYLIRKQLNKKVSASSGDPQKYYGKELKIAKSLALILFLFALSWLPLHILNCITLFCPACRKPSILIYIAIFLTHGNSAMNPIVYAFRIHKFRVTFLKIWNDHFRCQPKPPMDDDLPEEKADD
- method: Radioligand binding, hamster A1 AdoR, DDT1 MF-2 membranes
- condition: 3H-CPX radioligand; DDT1 MF-2 membranes; read-out: Ki (low) Hamster-A1 DDT1 MF-2
parameter measured: pKi
pKi here is simply -log10 of the concentration when that concentration is written in mol/L.

// worked examples, pKi included
structure_notation=Cn1c(-c2cccc(Cl)c2)nc2c(NC3CCCC3)ncnc21 reported_result=8.52
structure_notation=Cn1c(-c2cccnc2)nc2c(NC3CCCC3)ncnc21 reported_result=7.08
structure_notation=Cc1ccc(-c2nc3c(NC4CCCC4)ncnc3n2C)cc1 reported_result=8.52
structure_notation=Cn1c(-c2ccccc2)nc2c(NC3CCCCC3)ncnc21 reported_result=9.00

Proceed to the following item.
Field request: pKi | item: `Cn1c(-c2ccc(Cl)cc2)nc2c(NC3CCCC3)ncnc21`
8.00
